Overview of recorded pEC50 for various binders
target: T1, Hu FcRn (BPS Bioscience) (human, UniProt P55899 24-297; P61769 21-119)
T1 construct: Bought recombinant protein coated on ELISA plates; also called human FcRn; human neonatal Fc receptor
T1 sequence (P55899 24-297 limits assumed, chain 1 of 2): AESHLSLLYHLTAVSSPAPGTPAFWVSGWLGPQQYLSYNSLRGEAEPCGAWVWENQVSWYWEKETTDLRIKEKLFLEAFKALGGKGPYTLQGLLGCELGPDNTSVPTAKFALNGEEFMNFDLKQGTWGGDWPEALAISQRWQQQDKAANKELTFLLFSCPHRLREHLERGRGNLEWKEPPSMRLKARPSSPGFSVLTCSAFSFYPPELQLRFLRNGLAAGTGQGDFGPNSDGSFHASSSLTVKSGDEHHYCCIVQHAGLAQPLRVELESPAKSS
T1 sequence (P61769 21-119 limits assumed, chain 2 of 2): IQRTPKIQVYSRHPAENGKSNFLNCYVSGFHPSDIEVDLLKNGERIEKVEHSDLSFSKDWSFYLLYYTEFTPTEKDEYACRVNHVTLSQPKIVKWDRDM
protocol_text: optimized ELISA on FcRn, pH 6
Reminder that pEC50 means the negative base-10 logarithm of the concentration expressed in mol/L.

Report pEC50 for FcRn-16 (designed binder, AFFIMER (stefin A variant)) MIPRGLSEAKPATPEIQEIVDKVKPQLEEKTNETYGKLEAVQYKTQVLAKHHHHKHQHSTNYYIKVRAGDNKYMHLKVFNGPVFLHNESHQADRVLTGYQVDKNKDDELTGFHHHHHH please. 5.99

Can you handle FcRn-109 (designed binder, AFFIMER (stefin A variant)) MIPRGLSEAKPATPEIQEIVDKVKPQLEEKTNETYGKLEAVQYKTQVLARPHNRDSHRSTNYYIKVRAGDNKYMHLKVFNGPDRKHRKHWHADRVLTGYQVDKNKDDELTGFHHHHHH next? 6.24

Can you handle FcRn-176 (designed binder, AFFIMER (stefin A variant)) MIPRGLSEAKPATPEIQEIVDKVKPQLEEKTNETYGKLEAVQYKTQVLAGRHHESHKSSTNYYIKVRAGDNKYMHLKVFNGPFQHKLHKHHADRVLTGYQVDKNKDDELTGFHHHHHH next? 5.35

Origin of measurements: patent US20230097573A1
